Below, each entry is listed with its recorded pEC50.
Tested on: Hepatitis C virus
PROTOCOL_NOTES: Antiviral activity against HCV genotype 1b infected in human HuH7 cells assessed as inhibition of viral RNA replication after 72 hrs by luciferase reporter gene assay
Type: functional, organism-based, Hepacivirus hominis
ASSAY_SETUP: Huh-7, 72 h
pEC50: −log10 of the molar value.
MEASUREMENT_LABEL: pEC50

- Cc1cc(-c2ccccc2)nc2sc(C(=O)N3CCOCC3)c(N)c12: 5.24
- Nc1c(C(=O)N2CCSCC2)sc2nc(-c3ccccc3)cc(C(F)(F)F)c12: 5.14
- COc1ccc(-c2cc(C(F)(F)F)c3c(N)c(C(N)=O)sc3n2)cc1: 5.40
- Nc1c(C(=O)N2CCOCC2)sc2nc(-c3ccccc3)cc(C(F)(F)F)c12: 5.48
- CCOC(=O)c1oc2nc(-c3cccs3)cc(C(F)(F)F)c2c1N: 4.73
- COc1ccccc1-c1cc(C(F)(F)F)c2c(N)c(C(=O)N3CCOCC3)sc2n1: 5.08
- Nc1c(C(=O)N2CCOCC2)sc2nc(C3CC3)cc(C(F)(F)F)c12: 5.01
- Nc1c(C(=O)N2CCOCC2)sc2nc(-c3cccc(F)c3)cc(C(F)(F)F)c12: 5.17
- CCOC(=O)c1sc2nc(-c3ccco3)cc(C(F)(F)F)c2c1N: 5.24
- NC(=O)c1sc2nc(-c3ccccc3)cc(C(F)(F)F)c2c1N: 5.09
- Nc1c(C(=O)N2CCOCC2)oc2nc(-c3ccccc3)cc(C(F)(F)F)c12: 4.95
- Nc1c(C(=O)NC2CCCC2)sc2nc(-c3ccccc3)cc(C(F)(F)F)c12: 5.26
- Nc1c(C(=O)N2CCc3sccc3C2)sc2nc(-c3ccccc3)cc(C(F)(F)F)c12: 4.90
- Nc1c(C(=O)N2CCOCC2)sc2nc(-c3ccccc3)ccc12: 4.76

---

Known CC50 at 72 h of a selection of compounds
PROTOCOL_NOTES: Cytotoxicity against human HuH7 cells after 72 hrs by MTT assay
Type: cell-based, Huh-7
MEASUREMENT_LABEL: CC50 at 72 h

• Nc1c(C(=O)N2CCOCC2)sc2nc(C3CC3)cc(C(F)(F)F)c12 = > 20 µM
• COc1ccc(-c2cc(C(F)(F)F)c3c(N)c(C(N)=O)sc3n2)cc1 = 46.4 µM
• Nc1c(C(=O)NCc2cccs2)sc2nc(-c3ccccc3)cc(C(F)(F)F)c12 = > 20 µM
• Nc1c(C(=O)N2CCOCC2)sc2nc3c(c(C(F)(F)F)c12)CCc1ccccc1-3 = > 100 µM
• NC(=O)c1sc2nc(-c3ccccc3)cc(C(F)(F)F)c2c1N = > 20 µM
• Nc1c(C(=O)N2CCOCC2)oc2nc(-c3ccccc3)cc(C(F)(F)F)c12 = > 20 µM
• COc1cccc(-c2ccc3c(N)c(C(N)=O)sc3n2)c1 = < 0.4 µM
• COc1ccccc1-c1ccc2c(N)c(C(N)=O)sc2n1 = > 20 µM
• CCOC(=O)c1sc2nc(-c3cccs3)cc(C(F)(F)F)c2c1N = > 20 µM
• Nc1c(C(=O)N2CCOCC2)sc2nc(-c3ccccc3)ccc12 = > 20 µM
• Nc1c(C(=O)N2CCC(=O)CC2)sc2nc(-c3ccccc3)cc(C(F)(F)F)c12 = > 20 µM
• COc1cccc(-c2cc(C(F)(F)F)c3c(N)c(C(=O)N4CCOCC4)sc3n2)c1 = > 20 µM
• CCN(CC)C(=O)c1sc2nc(-c3ccccc3)cc(C(F)(F)F)c2c1N = > 100 µM
• Nc1c(C(=O)N2CCCCC2)sc2nc(-c3ccccc3)cc(C(F)(F)F)c12 = > 20 µM
• CCOC(=O)c1sc2nc(C3CC3)cc(C(F)(F)F)c2c1N = > 20 µM
• O=C(c1cc2c(C(F)(F)F)cc(-c3ccccc3)nc2s1)N1CCOCC1 = > 100 µM
• NC(=O)c1sc2nc(C3CC3)cc(C(F)(F)F)c2c1N = > 20 µM
• Nc1c(C(=O)NCc2ccccc2)sc2nc(-c3ccccc3)cc(C(F)(F)F)c12 = > 20 µM
• Nc1c(C(=O)N2CCOCC2)sc2nc(-c3ccccc3F)cc(C(F)(F)F)c12 = > 20 µM
• Nc1c(C(=O)O)sc2nc(-c3ccccc3)cc(C(F)(F)F)c12 = > 20 µM
• Nc1c(C(=O)N2CCSCC2)sc2nc(-c3ccccc3)cc(C(F)(F)F)c12 = > 20 µM
• COc1ccc(-c2ccc3c(N)c(C(N)=O)sc3n2)cc1 = < 0.4 µM
